# System: Plasma
# Assay summary: Anticoagulant activity in 0.3 pM tissue factor stimulated human CTI-citrated plasma assessed as inhibition of thrombin generation incubated for 5 mins by calibrated automated thrombogram analysis
# Format: functional, cell-free
pIC50: −log10 of the molar value.
Reported pIC50 values are given for each entry in this list.
Property measured: pIC50

| Molecule | Assay target | Property measured | Recorded number |
| --- | --- | --- | --- |
| Cc1ncn(-c2cc(Cl)c(C(=O)NC[C@@H](c3cccc(F)c3)c3ccc4[nH]c(C)nc4c3)c(Cl)c2)n1 | Plasma | pIC50 | 5.79 |
| COc1ccc(-n2nc(C(N)=O)c3c2C(=O)N(c2ccc(N4CCCCC4=O)cc2)CC3)cc1 [APIXABAN] | Plasma | pIC50 | 7.32 |
